Biological target: T1, cynomolgus monkey Protein S (cynomolgus monkey)
T1 construct: also called cyno Protein S
Test: BLI Octet; antibody on anti-human Fc probe; Protein S 7.81-500 nM; 4 mM CaCl2
Listed here are binders together with their documented koff.
Reply with just the number (in s⁻¹).

Guide cases for koff, answers given:
Antibody 29 (antibody, V domains shown, Same variable regions as Antibody 35) VH: QLQLQESGPGLVKPSETLSLTCTVSGGSITNSNYYWGWIRQPPGKGLEWIGSVYYSGTTYYNPSLKSRVTISVDPSKNQFSLKLSSVTAADTAVYYCVRESESYYYYGSDVWGQGTTVTVSS VL: DIQMTQSPSSLSASVGDRVTITCRASQGINNYLAWFQQKPGKAPKSLIYAASSLQSGVPSKFSGSGSGTDFTLTISSLQPEDFATYYCQQYNSYPRTFGQGTKVEIK :: 0.00177
Antibody 30 (antibody, V domains shown, Same variable regions as Antibody 36) VH: EVQLVESGGGLVKPGGSLRLSCAASGFTFSSYNMNWVRQAPGRGLDWVSSISSSSSYIYYADSVKGRFTISRDNAKNSLYLQMNTLRAEDTAVYYCARDEEWELLTGFDYWGQGTLVTVSS VL: DIQMTQSPSSLSASVGDRVTITCRASQGINNYLAWFQQKPGKAPKSLIYAASNLQSGVPLKFSGSGSGTDFTLTISSLQPEDFATYYCQQYNSYPITFGQGTRLEIK :: 0.00073
Antibody 27 (antibody, V domains shown, Same variable regions as Antibody 33) VH: QVQLQQSGPGLVKPSQTLSLTCAISGDSVSNNNAAWNWIRQSPSRGLEWLGGTYYRSKWYNDYAVSVKSRIIINPVTSKNQFSLQLNSVTPEDTAVYYCARGSSWYRFFDYWGQGTLVTVSS VL: EIVLTQSPGTLSLSPGERATLSCRASQSVGSSYLAWYQQKPGQAPRLLISGASGRATGIPDRFSGSGSGTDFTLTISRLEPEDFTVYYCQQYGSSPYTFGQGTKLEIK :: 0.00233
Antibody 4 (antibody, V domains shown, Same variable regions as Antibody 16) VH: QVQLVESGGGVVQPGRSLRLSCAASGFTFSTYGFHWVRQPPGKGLEWVAVIYYDGINKYYADSVKGRFTISRDNSKNTLFLQMNSLRAEDTAVYYCAESDLDYWGQGTLVTVSS VL: EIVLTQSPATLSLSPGERATLSCRASQSVSIYLAWYQQKPGQAPRLLIYDASNRATGIPARFSGSGSGTDFTLTISSLEPEDFAVYYCQQRSNWPLTFGPGTKVDIK :: 0.00308

Q: What koff value was documented for this binder, Antibody 41 (antibody, V domains shown, Same variable regions as Antibody 42) VH: QVQLVQSGSEVKKPGASVKVSCKASGYTFTNYYIHWVRQAPGQGLEWMGIITPSGGTTSYAQKFQGRVTMTRDTSTNTVYMGLSSLRSEDTAMYYCARAGVQLDRRGWFDPWGQGTLVTVSS VL: SYELTQPPSVSVSPGQTASITCSGDKLGDKYVFWYQQKPGQSPVLVIYQDSKRPSGIPERFSGSNSGNTATLTISGTQTMDEADYYCQAWDSSTVGFGGGTKLAVL ?
Ans: 0.00188
